# targetOrSystem: hGIP-R (Homo sapiens)
# Construct: expressed in transfected cells; host or cells: HEK-293 clonal cell lines
# Sequence (P48546 22-466): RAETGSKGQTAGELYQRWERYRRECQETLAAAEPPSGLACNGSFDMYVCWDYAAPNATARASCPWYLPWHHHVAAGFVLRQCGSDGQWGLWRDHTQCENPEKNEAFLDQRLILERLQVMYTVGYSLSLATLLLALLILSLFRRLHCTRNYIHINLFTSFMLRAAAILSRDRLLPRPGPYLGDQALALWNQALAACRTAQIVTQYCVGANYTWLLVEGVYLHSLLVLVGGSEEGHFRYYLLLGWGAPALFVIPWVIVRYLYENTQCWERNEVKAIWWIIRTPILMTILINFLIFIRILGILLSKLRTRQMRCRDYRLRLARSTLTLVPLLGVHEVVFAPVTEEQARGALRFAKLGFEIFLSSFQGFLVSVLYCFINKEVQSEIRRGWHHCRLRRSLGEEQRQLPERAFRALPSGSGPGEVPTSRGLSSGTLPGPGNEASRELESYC
# experimentalProtocol: Functional hGIP-R Assay (cAMP formation, HTRF)
# Assay type: cell-based
# recordedConditions: cAMP efficacy; percent of maximal response to GIP(1-42)OH; 37° C., 0.1% bovine casein; arithmetic mean ± SEM
The entries below are paired with their reported Emax.
Write the number in % without appending the unit.

molecule	reportedEndpoint	measured
Cn1cc(C[C@@H](NC(=O)C2CC2(C)c2ccc(-c3cnc4nn(C)cc4c3)cc2)C(=O)NC(C)(C)Cn2cc(C(F)(F)F)cn2)cn1 (single isomer, unassigned; isomer 4)	Emax	117
Cn1cc(C[C@@H](NC(=O)[C@H]2C[C@@H]2c2ccc(-c3cnc4nc(C(F)(F)F)cn4c3)cc2)C(=O)NC(C)(C)Cn2nc(C(F)(F)F)cc2-c2nnc[nH]2)cn1	Emax	142
[2H]C([2H])([2H])n1cc(C[C@H](C(=O)NC(C)(C)Cn2nc(C(F)(F)F)cc2-c2cnc(C(C)(C)O)nc2)N2CC[C@@]3(C[C@@H]3c3ccc(-c4cnc5nc(C6CC6)cn5c4)nc3C)C2=O)cn1	Emax	104
Cn1cc(C[C@@H](NC(=O)[C@H]2C[C@@H]2c2ccc(-c3cnc4nn(C)cc4c3)cc2)C(=O)NC(C)(C)Cn2nc(C(F)(F)F)cc2-c2cc[nH]n2)cn1	Emax	114
Cn1cc(-c2cc(C(F)(F)F)nn2CC(C)(C)NC(=O)[C@@H](Cc2cnn(C(F)F)c2)NC(=O)[C@H]2C[C@@H]2c2nc3c(Cl)nn(C)c3cc2C#N)cc(F)c1=O	Emax	78.1
CC(C)(Cn1cc(C(F)(F)F)cn1)NC(=O)[C@@H](Cc1cnc2ncccn12)NC(=O)[C@H]1C[C@@H]1c1ccc(-c2cnc3nn(C4CCC4)cc3c2)cc1	Emax	89.7
Cn1cc2cc(-c3ccc([C@H]4C[C@@]45CCN([C@H](Cc4cnn(C(F)F)c4)C(=O)NC(C)(C)Cn4nc(C(F)(F)F)cc4-c4cccn(CC#N)c4=O)C5=O)cc3)cnc2n1	Emax	95.7
Cn1cc(C[C@@H](NC(=O)[C@H]2C[C@@H]2c2ccc(-c3cnc4nn(C)cc4c3)cc2)C(=O)NC(C)(C)Cn2nc(C(F)(F)F)cc2C2CC2)cn1	Emax	102
CN(C(=O)[C@H]1C[C@@H]1c1ccc(NC(=O)C2CCC(F)(F)CC2)cc1)[C@H](Cc1cnn(C)c1)C(=O)NC(C)(C)Cn1nc(C(F)(F)F)cc1-c1ccc(=O)n(C)c1	Emax	75
Cn1cc(C[C@H](C(=O)NC(C)(C)Cn2nc(C(F)(F)F)cc2-c2cn[nH]n2)N2CC[C@@]3(C[C@@H]3c3ccc(-c4cnc5nn(C)cc5c4)cc3)C2=O)cn1	Emax	90

Req: Return reported Emax; argument: CN1CC2C=C(c3ccc([C@H]4C[C@@]45CCN([C@H](Cc4cnn(C(F)F)c4)C(=O)NC(C)(C)Cn4nc(C(F)(F)F)cc4-c4cnc(C(F)(F)F)nc4)C5=O)cc3)C=NC2C1=O (single isomer, unassigned; isomer 1)
Resp: 73.3

Req: Another molecule to check: Cc1cc(C2CC2C(=O)N[C@H](Cc2cnn(C)c2)C(=O)NC(C)(C)Cc2ccc(F)cc2)ccc1NC(=O)Nc1ccc(F)cc1 (single isomer, unassigned; isomer 2)
Resp: 85.5

Req: Repeat with `Cn1cc(C[C@@H](NC(=O)[C@H]2C[C@@H]2c2ccc(-c3cnc4nn(C)cc4c3)cc2)C(=O)NC(C)(C)Cn2nc(C(F)(F)F)cc2C2CCC2)cn1`
Resp: 120

Req: Next up: `[2H]C([2H])([2H])n1cc(C[C@H](C(=O)NC(C)(C)Cn2nc(C(F)(F)F)cc2-c2ccc(C(C)(C)O)nc2)N2CC[C@@]3(C[C@@H]3c3ccc(-c4cnc5nn(C)cc5c4)cc3Cl)C2=O)cn1`
Resp: 64.1

Req: Further, for `Cc1nc(-c2cnc3nc(C4CC4)cn3c2)ccc1[C@H]1C[C@@]12CCN([C@H](Cc1cnn(C(F)F)c1)C(=O)NC(C)(C)Cn1nc(C(F)(F)F)cc1-c1ccn(C3CC3)c(=O)c1)C2=O` ?
Resp: 96.6

Req: Try this molecule next: `Cn1cc2cc(-c3ccc([C@H]4C[C@@]45CCN([C@H](Cc4cnn(C(F)F)c4)C(=O)NC(C)(C)Cn4nc(C(F)(F)F)cc4-c4ccc(C(N)=O)[nH]c4=O)C5=O)cc3)cnc2n1`
Resp: 93.3

Req: Item: `Cn1cc(C[C@@H](NC(=O)[C@H]2C[C@@H]2c2ccc(-c3cnc4nn(C)cc4c3)cc2)C(=O)NC(C)(C)Cn2nc(C(F)(F)F)cc2-c2cn[nH]n2)cn1`
Resp: 126
